CC50 data for UACC-62 follow.
assay_readout: CC50

[[record]]
compound = "C=C1C(=O)O[C@H]2[C@H]1CC/C(COC(=O)NCCN1CCCCC1)=C\\CC[C@@]1(C)O[C@@H]21 [JVM 2-13]"
tested_target = "UACC-62"
observed_measurement = "50.1 µM"

[[record]]
compound = "C=C1C(=O)O[C@H]2[C@H]1CC/C(COC(=O)NC)=C\\CC[C@@]1(C)O[C@@H]21 [JVM 2-57]"
tested_target = "UACC-62"
observed_measurement = "50.5 µM"

[[record]]
compound = "C=C1C(=O)O[C@H]2[C@H]1CC/C(COC(=O)CCC(=O)N1CCC(C)CC1)=C\\CC[C@@]1(C)O[C@@H]21 [JVM 2-70]"
tested_target = "UACC-62"
observed_measurement = "49.5 µM"


----------
CC50 data for NCI-H322M follow.
assay_readout: CC50

[[record]]
structure_as_smiles = "C=C1C(=O)O[C@H]2[C@H]1CC/C(COC(=O)NC)=C\\CC[C@@]1(C)O[C@@H]21"
observed_measurement = "> 100 µM"

[[record]]
structure_as_smiles = "C=C1C(=O)O[C@H]2[C@H]1CC/C(COC(=O)N1CCN(C)CC1)=C\\CC[C@@]1(C)O[C@@H]21"
observed_measurement = "> 100 µM"

[[record]]
structure_as_smiles = "C=C1C(=O)O[C@H]2[C@H]1CC/C(COC(=O)NCCO)=C\\CC[C@@]1(C)O[C@@H]21"
observed_measurement = "> 100 µM"


----------
Below: a set of entries, each annotated with reported CC50.
Tested on: NCI-H460
test_description: panel of 60 human tumor cell lines, growth inhibition (Non-Small Cell Lung Cancer)
condition_notes: Homo sapiens, NCI-H460, read-out: LC50
assay_readout: CC50

[[record]]
molecule = "C=C1C(=O)O[C@H]2[C@H]1CC/C(COC(=O)NCCN1CCCC1)=C\\CC[C@@]1(C)O[C@@H]21 [JVM 59]"
observed_measurement = "> 100 µM"

[[record]]
molecule = "C=C1C(=O)O[C@H]2[C@H]1CC/C(COC(=O)OCCN(C)C)=C\\CC[C@@]1(C)O[C@@H]21 [JVM 2-35]"
observed_measurement = "> 100 µM"

[[record]]
molecule = "C=C1C(=O)O[C@H]2[C@H]1CC/C(COC(=O)NCCCCCCO)=C\\CC[C@@]1(C)O[C@@H]21 [JVM 2-31]"
observed_measurement = "> 100 µM"


----------
Below: a set of entries, each annotated with reported CC50.
Tested on: NCI-H226
assay_readout: CC50

[[record]]
structure_as_smiles = "C=C1C(=O)O[C@H]2[C@H]1CC/C(COC(=O)NCCN1CCCCC1)=C\\CC[C@@]1(C)O[C@@H]21"
tested_target = "NCI-H226"
observed_measurement = "> 100 µM"

[[record]]
structure_as_smiles = "C=C1C(=O)O[C@H]2[C@H]1CC/C(COC(=O)NCCO)=C\\CC[C@@]1(C)O[C@@H]21"
tested_target = "NCI-H226"
observed_measurement = "> 100 µM"

[[record]]
structure_as_smiles = "C=C1C(=O)O[C@H]2[C@H]1CC/C(COC(=O)N1CCN(C)CC1)=C\\CC[C@@]1(C)O[C@@H]21"
tested_target = "NCI-H226"
observed_measurement = "> 100 µM"


----------
CC50 data for CCRF-CEM follow.
assay_readout: CC50

[[record]]
compound = "C=C1C(=O)O[C@H]2[C@H]1CC/C(COC(=O)NCCN1CCCCC1)=C\\CC[C@@]1(C)O[C@@H]21 [JVM 2-13]"
tested_target = "CCRF-CEM"
observed_measurement = "> 100 µM"

[[record]]
compound = "C=C1C(=O)O[C@H]2[C@H]1CC/C(COC(=O)N1CCN(C)CC1)=C\\CC[C@@]1(C)O[C@@H]21 [JVM 2-44]"
tested_target = "CCRF-CEM"
observed_measurement = "> 100 µM"

[[record]]
compound = "C=C1C(=O)O[C@H]2[C@H]1CC/C(COC(=O)NCCO)=C\\CC[C@@]1(C)O[C@@H]21 [JVM 2-50]"
tested_target = "CCRF-CEM"
observed_measurement = "> 100 µM"

